The values you see were collected from the kinase profiling compilation of Christmann-Franck et al. (2016).

target: YES1 (human) (UniProt P07947); assay: KINOMEscan competition binding; conditions: compound 10.0 µM
Sequence (P07947 whole entry, looked up): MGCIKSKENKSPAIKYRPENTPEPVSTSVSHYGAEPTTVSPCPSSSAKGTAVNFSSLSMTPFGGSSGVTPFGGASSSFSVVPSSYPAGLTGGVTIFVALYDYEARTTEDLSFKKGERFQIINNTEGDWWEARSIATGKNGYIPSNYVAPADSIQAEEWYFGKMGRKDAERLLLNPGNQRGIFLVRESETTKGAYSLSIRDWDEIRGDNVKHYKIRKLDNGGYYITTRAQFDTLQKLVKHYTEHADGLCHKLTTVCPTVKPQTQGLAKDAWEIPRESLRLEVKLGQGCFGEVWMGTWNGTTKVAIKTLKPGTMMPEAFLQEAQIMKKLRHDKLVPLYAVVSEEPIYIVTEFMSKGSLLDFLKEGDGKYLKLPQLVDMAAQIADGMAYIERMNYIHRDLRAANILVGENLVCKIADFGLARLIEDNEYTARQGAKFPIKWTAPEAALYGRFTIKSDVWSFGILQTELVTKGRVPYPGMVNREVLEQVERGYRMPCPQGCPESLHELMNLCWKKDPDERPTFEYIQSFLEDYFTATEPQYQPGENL
Measured kinase still bound, per cent of control by item
Number plus unit, in that order.

What measured kinase still bound, per cent of control goes with COCC(=O)NC/C=C/c1ccc2ncnc(Nc3ccc(Oc4ccc(C)nc4)c(C)c3)c2c1 ?
65%

Given COc1ccc(N(C(=O)Oc2c(C)cccc2C)c2ccnc(Nc3ccc(N4CCN(C)CC4)cc3)n2)c(OC)c1 , state its recorded kinase still bound, per cent of control.
0.05%

Value lookup for kinase still bound, per cent of control; key = CCN(CC)CCCCNc1ncc2c(n1)N(C)C(=O)N(c1c(Cl)c(OC)cc(OC)c1Cl)C2
100%

Quick one: kinase still bound, per cent of control for O=C(Nc1cccc(Nc2ncc(Br)c(NCCc3cnc[nH]3)n2)c1)N1CCCC1 ?
31%

Entry Cc1n[nH]c2ccc(-c3cncc(OC[C@@H](N)Cc4c[nH]c5ccccc45)c3)cc12 : reported kinase still bound, per cent of control = ?
100%

// query kinase still bound, per cent of control value for entry C[C@@H](Oc1cc(-c2cnn(C3CCNCC3)c2)cnc1N)c1c(Cl)ccc(F)c1Cl
17%

What does the record list as kinase still bound, per cent of control for CN(C)C/C=C/C(=O)Nc1ccc(C(=O)Nc2cccc(Nc3nccc(-c4cccnc4)n3)c2)cc1 ?
100%

kinase still bound, per cent of control for COc1cc2ncnc(-n3nc(-c4ccccn4)nc3N)c2cc1OC ?
77%

Would you kindly share the measured kinase still bound, per cent of control for C=CC(=O)Nc1ccc(CN(C(=O)Nc2c(Cl)c(OC)cc(OC)c2Cl)c2cc(Nc3ccc(N4CCN(C)CC4)cc3)ncn2)cc1 ?
5.2%

----------
biological target: UniProtKB Q92918; experiment: KINOMEscan competition binding; details: compound 10.0 µM
Sequence (Q92918 whole entry, looked up): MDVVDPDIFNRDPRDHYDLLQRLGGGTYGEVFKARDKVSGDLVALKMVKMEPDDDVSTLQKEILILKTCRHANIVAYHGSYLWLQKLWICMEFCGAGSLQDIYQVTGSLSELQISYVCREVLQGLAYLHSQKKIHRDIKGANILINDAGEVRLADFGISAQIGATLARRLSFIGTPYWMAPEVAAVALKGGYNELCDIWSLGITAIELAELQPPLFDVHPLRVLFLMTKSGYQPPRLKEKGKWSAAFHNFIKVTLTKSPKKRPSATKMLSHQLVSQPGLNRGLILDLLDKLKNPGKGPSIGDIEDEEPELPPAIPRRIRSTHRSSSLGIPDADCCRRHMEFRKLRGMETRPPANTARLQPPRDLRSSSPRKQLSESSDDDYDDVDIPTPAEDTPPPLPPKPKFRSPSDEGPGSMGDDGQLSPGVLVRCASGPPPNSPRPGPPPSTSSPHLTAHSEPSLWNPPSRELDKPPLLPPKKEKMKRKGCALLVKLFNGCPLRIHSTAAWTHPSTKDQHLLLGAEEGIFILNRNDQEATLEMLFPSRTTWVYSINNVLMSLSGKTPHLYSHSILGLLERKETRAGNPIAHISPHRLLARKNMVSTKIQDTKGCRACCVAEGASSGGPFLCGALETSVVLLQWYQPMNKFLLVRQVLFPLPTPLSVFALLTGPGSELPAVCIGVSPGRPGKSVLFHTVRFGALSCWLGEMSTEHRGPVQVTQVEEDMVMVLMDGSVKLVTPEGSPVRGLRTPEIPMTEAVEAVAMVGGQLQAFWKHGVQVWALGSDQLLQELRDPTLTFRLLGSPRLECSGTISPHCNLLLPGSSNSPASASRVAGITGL
Could you please mark 1 (yes) for values of kinase still bound, per cent of control below 40% and 0 (no) for values at or above it?

Examples from the recorded data:
Cc1n[nH]c2ccc(-c3cncc(OC[C@@H](N)Cc4c[nH]c5ccccc45)c3)cc12	1 (yes)
COc1cc(N2CCN(C)CC2)ccc1Nc1ncc2c(n1)N(C)c1ccccc1C(=O)N2C	0 (no)
COCC(=O)NC/C=C/c1ccc2ncnc(Nc3ccc(Oc4ccc(C)nc4)c(C)c3)c2c1	0 (no)

Could you please tell me whether kinase still bound, per cent of control recorded for N#CCNC(=O)c1ccc(-c2ccnc(Nc3ccc(N4CCOCC4)cc3)n2)cc1 is less than 40%?
1 (yes)

Please let me know if CCN(CC)CCCCNc1ncc2c(n1)N(C)C(=O)N(c1c(Cl)c(OC)cc(OC)c1Cl)C2 shows kinase still bound, per cent of control below 40%.
0 (no)

Could you please tell me whether kinase still bound, per cent of control recorded for CCN1CCN(C(=O)Cc2ccc(Nc3ncc(F)c(Nc4ccc(C(=O)Nc5ccccc5Cl)cc4)n3)cc2)CC1 is less than 40%?
1 (yes)

Identify whether the compound COc1cc2ncn(-c3cc(OCc4ccccc4C(F)(F)F)c(C(N)=O)s3)c2cc1OC records kinase still bound, per cent of control below 40%.
0 (no)

Does the reported kinase still bound, per cent of control of C[C@@H](Oc1cc(-c2cnn(C3CCNCC3)c2)cnc1N)c1c(Cl)ccc(F)c1Cl stay below 40%?
1 (yes)

----------
target: LIMK1 (human) (UniProt P53667); assay: KINOMEscan competition binding; settings: compound 10.0 µM
Sequence (P53667 whole entry, looked up): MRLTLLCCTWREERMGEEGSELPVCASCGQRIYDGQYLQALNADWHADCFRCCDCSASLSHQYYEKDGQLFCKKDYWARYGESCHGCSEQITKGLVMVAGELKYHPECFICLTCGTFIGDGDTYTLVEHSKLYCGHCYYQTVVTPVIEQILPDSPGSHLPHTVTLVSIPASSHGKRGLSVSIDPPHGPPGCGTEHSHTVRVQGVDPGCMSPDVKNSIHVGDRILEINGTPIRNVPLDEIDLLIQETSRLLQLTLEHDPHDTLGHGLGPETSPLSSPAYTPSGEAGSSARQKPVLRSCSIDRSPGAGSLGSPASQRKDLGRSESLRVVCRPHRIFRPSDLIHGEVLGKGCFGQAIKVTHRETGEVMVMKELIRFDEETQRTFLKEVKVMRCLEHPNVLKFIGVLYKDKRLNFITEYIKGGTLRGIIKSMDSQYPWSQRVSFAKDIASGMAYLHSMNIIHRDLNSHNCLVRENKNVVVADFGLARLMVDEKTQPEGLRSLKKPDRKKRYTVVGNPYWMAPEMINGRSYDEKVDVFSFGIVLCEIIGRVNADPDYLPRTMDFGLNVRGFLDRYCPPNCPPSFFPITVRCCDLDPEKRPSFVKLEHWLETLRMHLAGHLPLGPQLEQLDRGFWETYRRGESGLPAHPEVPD
Attribute: kinase still bound, per cent of control
All answers are understood in %, so give the number only.

COc1ccc(N(C(=O)Oc2c(C)cccc2C)c2ccnc(Nc3ccc(N4CCN(C)CC4)cc3)n2)c(OC)c1	0

Can you share its kinase still bound, per cent of control? I mean this molecule: NC(=O)Nc1cc(-c2cccc(F)c2)sc1C(=O)N[C@@H]1CCCNC1
62

Look up kinase still bound, per cent of control for this molecule: COc1cc2ncnc(-n3nc(-c4ccccn4)nc3N)c2cc1OC
22

// lookup kinase still bound, per cent of control for CNC(=O)c1ccc(Nc2cc(Nc3ccccc3S(=O)(=O)C(C)C)c3cc[nH]c3n2)nc1
100

Query (molecule): COc1cc(C(=O)N2CCC(N3CCN(C)CC3)CC2)ccc1Nc1ncc2c(n1)N(C)c1ccccc1C(=O)N2C ; field requested: kinase still bound, per cent of control
95

Data request, read-out kinase still bound, per cent of control, for O=C1NC(=O)/C(=C/c2ccc3nccc(-c4ccncc4)c3c2)S1
88

For the molecule O=C(Nc1cccc(Nc2ncc(Br)c(NCCc3cnc[nH]3)n2)c1)N1CCCC1 , what kinase still bound, per cent of control is on record?
38

I would be grateful if you could share the reported kinase still bound, per cent of control for C[C@@H](Oc1cc(-c2cnn(C3CCNCC3)c2)cnc1N)c1c(Cl)ccc(F)c1Cl .
2.7

Please look up its kinase still bound, per cent of control: N#CCNC(=O)c1ccc(-c2ccnc(Nc3ccc(N4CCOCC4)cc3)n2)cc1
100
